Attribution: ChEMBL document CHEMBL1201862

Tested on: NCI-H23
experiment: NCI tumour cell line growth inhibition, 48 h
The source made the active and inactive calls. Rule as the data show it: active = GI50 up to about 1.1 µM and inactive = higher.
experimental.endpoint: GI50

* COc1ccc2o/c(=N\c3ccc(F)cc3)c(C(N)=O)cc2c1 | 29.3 µM (inactive)
* Cc1ccc(C(=O)N2c3ccccc3N(C)n3cccc3C2CC(=O)O)cc1 (stereo not given) | > 100 µM (inactive)
* O=Cc1[nH]c2ccccc2c1Br | 30.3 µM (inactive)
* CCOC(=O)CCCN | > 100 µM (inactive)
* Cn1c(=O)c2c(nc(NCCCCl)n2CC(=O)NCCCCl)n(C)c1=O | > 100 µM (inactive)

----------
System: A549
experiment: NCI tumour cell line growth inhibition, 48 h
Active and inactive are the calls of the source. No stated cut-off is given here; in the data, active = GI50 up to about 1.1 µM and inactive = higher.
experimental.endpoint: GI50

- CCCCCCCCCC(=O)CC(=O)c1c(O)cccc1O: 28.8 µM (inactive)
- S=c1ssc2c3ssc(=S)c3n(Cc3ccccc3)c12: > 100 µM (inactive)
- Cn1c(SCc2ccc(F)cc2)nnc1C12CC3CC(CC(C3)C1)C2: 36.6 µM (inactive)
- CC(C)c1ccc(/C=C/c2cc(C(=O)NNC(=O)NC3CCCCC3)nc(S)n2)cc1: > 100 µM (inactive)
- CC(C)(C)OC(=O)NCCCCC(NC(=O)OCc1ccccc1)C(N)=O (stereo unspecified): > 100 µM (inactive)
- Nc1nc(-c2ccc(Cl)c([N+](=O)[O-])c2)cs1: > 100 µM (inactive)
- Cc1nc2c(ccc3[nH]c4ccccc4c32)s1: 28.4 µM (inactive)
- O=C(/C=C/c1ccc(OCC(=O)N2CCN(c3ccccc3)CC2)cc1)c1ccccc1: 44.4 µM (inactive)
- CCCCN(C)/N=N/c1[nH]cnc1C(N)=O: > 100 µM (inactive)
- CCCCCCCCCCOC1C(C(O)CNCCCN(C)C)OC2OC3(CCCCC3)OC21 (stereo unspecified): 3.32 µM (inactive)
- COc1ccc2c3c([nH]c(=O)c2c1C(=O)O)-c1ccccc1CC3: > 100 µM (inactive)
- CCOP(=O)(COCCn1ncc(=O)[nH]c1=O)OCC: > 100 µM (inactive)
- CCOC(=O)[C@@]1(C)C=C2O[C@@H]3OC4(CCCCC4)O[C@@H]3C2=C2C(O)=CC=C(O)[C@]21C(=O)OC: > 68.1 µM (inactive)
- CCCCCCOc1ccc(NC2=C(Cl)C(=O)c3c(O)ccc(O)c3C2=O)cc1: 3.27 µM (inactive)
- CN1CCN(CCCNN)CC1: > 100 µM (inactive)
- COc1ccc2nc3ccc(OC)cc3c([S+]([O-])Cc3ccc([N+](=O)[O-])cc3)c2c1 (stereo unspecified): 25.8 µM (inactive)
- c1ccc(-c2csc3ncn4cnnc4c23)cc1: > 100 µM (inactive)
- Cc1ccccc1NC(=O)CC(=O)NNC(Sc1ccccc1)c1cc(/N=N/c2ccc(Br)cc2)ccc1O (stereo unspecified): 3.42 µM (inactive)
- C/C(=N\NC(N)=S)c1ccc(/C(C)=N/NC(N)=S)cc1: > 100 µM (inactive)
- CC1OC(OC2C(O[C@H]3CC[C@@]4(C)C(=CC[C@H]5[C@@H]6C[C@@H]7O[C@]8(CC[C@H](C)CN8)[C@@H](C)[C@@H]7[C@@]6(C)CC[C@@H]54)C3)OC(CO)C(O)C2OC2OC(CO)C(O)C(O)C2O)C(O)C(O)C1O (stereo partly specified): 18.1 µM (inactive)
- CC(C)=CCc1cc(C2COc3cc4c(c(O)c3C2=O)C=CC(C)(C)O4)c(O)cc1O (stereo unspecified): 12.7 µM (inactive)
- CCOC(=O)CCCN: > 100 µM (inactive)
- COC(=O)C1C(=O)CC(C)(O)C(C(=O)OC)C1c1ccc(N(C)C)cc1 (stereo unspecified): > 100 µM (inactive)
- NC(=O)NC(=O)Nc1ccc(Br)cc1: > 16.6 µM (inactive)
- O=C(Nc1ccc([As](=O)(O)O)cc1)Nc1cccc(Cl)c1Cl: > 100 µM (inactive)
- COC(=O)c1ccccc1C1CN=NC12Cc1c(ccc3c1CCC3)C2=O (stereo unspecified): > 100 µM (inactive)
- COc1ccccc1C1C(Cl)C(=O)N1NC(=O)Cc1ccccc1 (stereo unspecified): > 100 µM (inactive)
- C[C@]12CCC(=O)C(O)=C1CCC2=O: > 100 µM (inactive)
- CC1CCCC(C(O)CC2CC(=O)NC(=O)C2)C1O (stereo unspecified): > 100 µM (inactive)
- CC(=O)c1ccc2c(c1)CC1(C2)Cc2ccccc2C1=O (stereo unspecified): 37.8 µM (inactive)
- CCN(CC)CCCC(C)Nc1c2ccc(Cl)cc2nc2cc(Cl)ccc12 (stereo unspecified): 4.78 µM (inactive)
